Property: Activity; scope: individual compounds
Molecular target: Albumin (Bos taurus, UniProt P02769)
Sequence (P02769 whole entry): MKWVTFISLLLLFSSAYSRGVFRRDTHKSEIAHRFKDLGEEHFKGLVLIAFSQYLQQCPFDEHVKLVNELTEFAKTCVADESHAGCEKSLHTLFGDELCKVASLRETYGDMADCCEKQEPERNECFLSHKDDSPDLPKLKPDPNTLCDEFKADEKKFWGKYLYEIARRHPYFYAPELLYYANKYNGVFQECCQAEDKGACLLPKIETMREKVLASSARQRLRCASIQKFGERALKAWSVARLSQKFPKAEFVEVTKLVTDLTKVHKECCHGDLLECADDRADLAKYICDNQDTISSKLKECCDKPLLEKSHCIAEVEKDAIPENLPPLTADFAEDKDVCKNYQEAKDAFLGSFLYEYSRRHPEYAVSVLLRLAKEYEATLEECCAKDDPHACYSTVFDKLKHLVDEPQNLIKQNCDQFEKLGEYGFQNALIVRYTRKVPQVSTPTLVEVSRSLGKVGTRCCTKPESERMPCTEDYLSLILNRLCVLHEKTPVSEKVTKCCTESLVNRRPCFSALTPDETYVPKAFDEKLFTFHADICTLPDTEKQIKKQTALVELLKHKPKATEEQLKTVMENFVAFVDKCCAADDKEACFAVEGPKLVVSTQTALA
Assay: Binding affinity to bovine serum albumin assessed as decrease in protein fluorescence intensity up to 10 uM by fluorescence spectroscopic analysis
Type: ADME
Design: scale not given: the % may be the effect or the level left
Conditions: cattle, isolated protein

Smiles Repr | Subject Of Test | Unit Label | Activity
N#CC1=CC2(c3ccccc3Nc3ccccc32)N(/N=C/c2c(Cl)cccc2Cl)C1=O | Albumin (Bos taurus, UniProt P02769) | % | 45.77
N#CC1=CC2(c3ccccc3Nc3ccccc32)N(/N=C/c2ccc(F)cc2)C1=O | Albumin (Bos taurus, UniProt P02769) | % | 55.11
N#CC1=CC2(c3ccccc3Nc3ccccc32)N(/N=C/c2ccc(Cl)cc2)C1=O | Albumin (Bos taurus, UniProt P02769) | % | 60.3
CCOc1cc(/C=N/N2C(=O)C(C#N)=CC23c2ccccc2Nc2ccccc23)ccc1O | Albumin (Bos taurus, UniProt P02769) | % | 58.57
CN(C)c1ccc(/C=N/N2C(=O)C(C#N)=CC23c2ccccc2Nc2ccccc23)cc1 | Albumin (Bos taurus, UniProt P02769) | % | 54.95
